Overview of reported IC50 across a group of compounds:
# targetOrSystem: HIF-PHD2 (Homo sapiens)
# Construct: FLAG-tagged full length PHD2 expressed in and purified from baculovirus-infected Sf9 cells; FLAG; made in house; host or cells: baculovirus-infected Sf9 cells
# testSummary: Assay for HIF-PHD2 Catalytic Activity (PHD2 Binding Activity)
# Format: biochemical

| compound | reportedResult |
| --- | --- |
| COc1ccnc(N2C(=O)N(c3ccc(-c4ccccc4)cc3)C(=O)C23CCN(Cc2ncccc2C#N)CC3)n1 | > 50 nM |
| O=C(O)CN1CCC2(CC1)C(=O)N(c1ccc(-c3ccccc3)cc1)C(=O)N2c1ncccn1 | 0.5 to 20 nM |
| COc1cc(N2C(=O)N(c3ccc(-c4ccc(C5CC(=O)NN5)cc4)cc3)C(=O)C23CCN(Cc2ncccc2C)CC3)ncn1 (centres unmarked) | 0.5 to 20 nM |
| CCOC(=O)C1CN(Cc2ncccc2C)CCC12C(=O)N(c1ccc(-c3ccccc3)cc1)C(=O)N2c1cc(OC)ncn1 (centres unmarked) | 0.5 to 20 nM |
| Cc1cccnc1CN1CCC2(C(=O)N(c3ccc(-c4ccccc4)cc3)C(=O)N2c2nccc(O)n2)C(C(=O)O)C1 (centres unmarked) | 0.5 to 20 nM |

Here O=C(O)CCn1ccnc1CN1CCC2(CC1)C(=O)N(c1ccc(-c3ccccc3)cc1)C(=O)N2c1nccc(O)n1 was tested on HIF-PHD2 (Homo sapiens), and its IC50 came to 0.5 to 20 nM

Here O=C(O)CN1CCC2(CC1)C(=O)N(c1ccc(-c3ccccc3)cc1)C(=O)N2c1cnccn1 was tested on HIF-PHD2 (Homo sapiens), and its IC50 came to 0.5 to 20 nM

Here Cc1cccnc1CN1CCC2(CC1)C(=O)N(c1ccc(C(=O)O)cc1)C(=O)N2c1nccc(O)n1 was tested on HIF-PHD2 (Homo sapiens), and its IC50 came to > 50 nM

Here COC(=O)c1cccc(N2C(=O)N(c3ccc(-c4ccccc4)cc3)C(=O)C23CCN(Cc2ncccc2C)CC3)n1 was tested on HIF-PHD2 (Homo sapiens), and its IC50 came to 0.5 to 20 nM

Here Cc1cccnc1CN1CCC2(CC1)C(=O)N(c1ccc(-c3ccccc3)cc1)C(=O)N2c1ccncn1 was tested on HIF-PHD2 (Homo sapiens), and its IC50 came to 0.5 to 20 nM

Here O=C(O)c1[nH]cnc1CN1CCC2(CC1)C(=O)N(c1ccc(-c3ccccc3)cc1)C(=O)N2c1nccc(O)n1 was tested on HIF-PHD2 (Homo sapiens), and its IC50 came to 20 to 50 nM

Here COc1ccnc(N2C(=O)N(c3ccc(-c4ccccc4)cc3)C(=O)C23CCN(Cc2ncccc2-c2nnn[nH]2)CC3)n1 was tested on HIF-PHD2 (Homo sapiens), and its IC50 came to > 50 nM

Here CCCCOC(=O)c1[nH]cnc1CN1CCC2(CC1)C(=O)N(c1ccc(-c3ccccc3)cc1)C(=O)N2c1cc(OC)ncn1 was tested on HIF-PHD2 (Homo sapiens), and its IC50 came to 0.5 to 20 nM

Here CCOC(=O)c1ccc(N2C(=O)N(c3nccc(OC)n3)C3(CCN(Cc4ncccc4C)CC3)C2=O)cc1 was tested on HIF-PHD2 (Homo sapiens), and its IC50 came to 0.5 to 20 nM

---

Overview of reported IC50 across a group of compounds:
# targetOrSystem: HIF-PHD2 (Homo sapiens, UniProt Q9GZT9)
# Construct: FLAG-tagged full length PHD2 expressed in and purified from baculovirus-infected Sf9 cells; FLAG; made in house; host or cells: baculovirus-infected Sf9 cells
# Sequence (Q9GZT9 whole entry): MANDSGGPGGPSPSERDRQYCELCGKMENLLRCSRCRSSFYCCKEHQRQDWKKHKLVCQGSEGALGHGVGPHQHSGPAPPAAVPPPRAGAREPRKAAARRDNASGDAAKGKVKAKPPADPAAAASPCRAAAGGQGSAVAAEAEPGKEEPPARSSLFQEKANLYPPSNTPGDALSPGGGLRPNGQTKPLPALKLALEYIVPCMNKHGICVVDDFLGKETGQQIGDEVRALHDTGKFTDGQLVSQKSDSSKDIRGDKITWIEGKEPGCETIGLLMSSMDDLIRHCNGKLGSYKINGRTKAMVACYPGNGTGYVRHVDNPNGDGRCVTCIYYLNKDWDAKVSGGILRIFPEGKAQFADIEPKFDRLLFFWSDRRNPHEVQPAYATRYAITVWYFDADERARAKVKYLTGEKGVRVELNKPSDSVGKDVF
# testSummary: Assay for HIF-PHD2 Catalytic Activity (PHD2 Binding Activity)
# Type: biochemical

| compound | IC50 |
| --- | --- |
| Cc1cccnc1CN1CCC2(CC1)C(=O)N(c1ccc(-c3ccccc3)cc1)C(=O)N2c1nc(O)cc(O)n1 | 0.5 to 20 nM |
| CCOC(=O)C1CN(Cc2ncccc2C)CCC12C(=O)N(c1ccc(-c3ccccc3)cc1)C(=O)N2c1cc(O)ncn1 (single isomer, unassigned) [Compound 3-10] | 0.5 to 20 nM |
| COc1cc(O)nc(N2C(=O)N(c3ccc(-c4ccccc4)cc3)C(=O)C23CCN(Cc2ncccc2C)CC3)n1 | 0.5 to 20 nM |
| COc1ccnc(N2C(=O)N(c3ccc(-c4ccccc4)cc3)C(=O)C23CCN(Cc2nnn[nH]2)CC3)n1 | > 50 nM |

So, COc1ccnc(N2C(=O)N(c3ccc(-c4ccccc4)cc3)C(=O)C23CCN(Cc2nccn2CC(=O)OC(C)(C)C)CC3)n1 ? Its IC50 was > 50 nM

So, Cc1cccnc1CN1CCC2(CC1)C(=O)N(c1ccc(-c3ccccc3)cc1)C(=O)N2c1cccc(F)n1 ? Its IC50 was 0.5 to 20 nM
